Hey, just so you know, these numbers are from patent US20090149389A1.

Molecular target: MAPKAP kinase II (MK2) (UniProt P49137 1-400, limits assumed)
Sequence (P49137 whole entry): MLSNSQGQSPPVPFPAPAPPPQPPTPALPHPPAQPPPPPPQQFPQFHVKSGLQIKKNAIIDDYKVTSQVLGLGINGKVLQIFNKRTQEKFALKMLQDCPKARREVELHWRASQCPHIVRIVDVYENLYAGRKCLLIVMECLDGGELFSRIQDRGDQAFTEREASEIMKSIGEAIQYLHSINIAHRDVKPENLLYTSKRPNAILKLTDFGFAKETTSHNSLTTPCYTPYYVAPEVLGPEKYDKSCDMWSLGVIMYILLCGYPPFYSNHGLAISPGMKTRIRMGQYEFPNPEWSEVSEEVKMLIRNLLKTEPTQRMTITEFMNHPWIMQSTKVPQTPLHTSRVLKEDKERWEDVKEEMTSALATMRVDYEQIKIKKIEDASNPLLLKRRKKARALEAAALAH
Assay: cell-based or functional assay
measuredEndpoint: % of Blank Reaction Velocity at an Inhibitor Concentration of 6.25pN (%)

{"binder": "WLRRIKAWLRRIKALARQLAVA", "valueReported": 3.3}
{"binder": "WLRRIKAWLRRIKKKALARQLAVA", "valueReported": 1}
{"binder": "WLRRIKAWLRRIKALARQLGVA", "valueReported": 3.9}
{"binder": "WLRRIKAWLRRIKALNRQLAVA", "valueReported": -2.1}
